Answer each item with its documented Kd.
# target entity: T1, human EphA4 (Homo sapiens, UniProt P54764)
# T1 construct: made in house; not restated for the human SEAP-His protein
# T1 sequence (P54764 20-547): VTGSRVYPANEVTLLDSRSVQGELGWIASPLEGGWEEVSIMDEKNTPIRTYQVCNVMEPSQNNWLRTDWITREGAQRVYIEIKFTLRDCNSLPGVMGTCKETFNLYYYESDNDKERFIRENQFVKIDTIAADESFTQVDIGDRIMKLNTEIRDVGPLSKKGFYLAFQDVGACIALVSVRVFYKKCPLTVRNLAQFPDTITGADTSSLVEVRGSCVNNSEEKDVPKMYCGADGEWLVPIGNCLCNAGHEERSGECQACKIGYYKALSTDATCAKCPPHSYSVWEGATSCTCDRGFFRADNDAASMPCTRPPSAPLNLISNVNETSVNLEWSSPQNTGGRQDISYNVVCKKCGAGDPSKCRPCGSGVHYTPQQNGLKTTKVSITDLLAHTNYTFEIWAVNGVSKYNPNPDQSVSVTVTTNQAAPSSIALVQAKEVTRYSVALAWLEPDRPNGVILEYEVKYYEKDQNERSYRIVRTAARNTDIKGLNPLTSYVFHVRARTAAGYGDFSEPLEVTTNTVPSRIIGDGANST
# protocol details: Affinity of humanized antibodies by SPR (Biacore T200)
# Format: binding
# condition set: human EphA4 extracellular region-SEAP-His; KD=kd/ka
Number only, in nM; omit the unit.

*Q* Which Kd value belongs to 153 (antibody, V domains shown, synthetic humanized antibody heavy chain variable region sequence; synthetic humanized antibody light chain variable region sequence) VH: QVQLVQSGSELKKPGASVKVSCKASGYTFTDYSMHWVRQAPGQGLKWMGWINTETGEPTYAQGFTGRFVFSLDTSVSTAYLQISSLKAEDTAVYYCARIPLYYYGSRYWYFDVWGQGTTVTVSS VL: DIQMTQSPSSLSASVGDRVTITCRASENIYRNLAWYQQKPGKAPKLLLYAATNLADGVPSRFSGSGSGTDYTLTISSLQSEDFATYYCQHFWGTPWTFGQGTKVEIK ?
*A* 2.1

*Q* Which Kd value belongs to 84 (antibody, V domains shown, constant regions without entry; synthetic humanized antibody light chain variable region sequence; synthetic humanized antibody heavy chain variable region sequence) VL: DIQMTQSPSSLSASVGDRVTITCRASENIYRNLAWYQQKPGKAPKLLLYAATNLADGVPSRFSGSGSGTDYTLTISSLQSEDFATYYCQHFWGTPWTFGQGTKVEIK VH: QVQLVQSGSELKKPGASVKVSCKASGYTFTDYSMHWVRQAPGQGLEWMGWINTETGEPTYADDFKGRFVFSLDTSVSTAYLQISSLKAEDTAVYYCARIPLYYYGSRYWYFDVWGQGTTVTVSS ?
*A* 1.7
